test system: Bacillus subtilis DB104 (SP-AmyQ fusion secretion); test: AmyQ secretion efficiency, weighted average sort bin (1 = best secretion, 10 = worst) (bin number (weighted average, 1-10)); higher = lower secretion efficiency
observationType: AmyQ secretion efficiency

Would you mind telling me what AmyQ secretion efficiency value was observed for `MKKGYSTTSTGVLVTTVFLVKQQESVAQAKQL` ?
7.95

Would you mind telling me what AmyQ secretion efficiency value was observed for `MKKSQYFIVFICFFVLFSVHPIATAAADS` ?
3.6

Would you mind telling me what AmyQ secretion efficiency value was observed for `MLKKIALTLCPAIVGSLLFFTAPASFHVS` ?
7.41

Would you mind telling me what AmyQ secretion efficiency value was observed for `MKNMSCKLKKSVTLFFSFLTIGPLAHAQNS` ?
3.34

Would you mind telling me what AmyQ secretion efficiency value was observed for `MKKVKRAFIICLSLILSVLAAPPSGAKAESV` ?
1.67

Would you mind telling me what AmyQ secretion efficiency value was observed for `MKKCLLFLTTIALILSLSTNAFAEDE` ?
4.16

Would you mind telling me what AmyQ secretion efficiency value was observed for `MKRLLVSLRVWMVFLMNWVTPKRKTAAAAVY` ?
5.43

Would you mind telling me what AmyQ secretion efficiency value was observed for `MTKAFLVFLSVVLVTTVFLVKQQESVAQAKQL` ?
5.72

Would you mind telling me what AmyQ secretion efficiency value was observed for `MKKRLIAPMLKRKKRRAFFAMSGSAQAAAY` ?
7.88

Would you mind telling me what AmyQ secretion efficiency value was observed for `MKKKLAAGLTASAIVGTTLVDEPAEAATI` ?
5.66

Would you mind telling me what AmyQ secretion efficiency value was observed for `MLCVMMLLFSAIAEDEVSAQAKDQ` ?
6.57

Would you mind telling me what AmyQ secretion efficiency value was observed for `MKNMSCKLVVSVTLFFSFLTIGPLIHAQNS` ?
1.06

Would you mind telling me what AmyQ secretion efficiency value was observed for `MKKRITYSTSYQQTRVAFAFTDSSKAKAAEA` ?
6.55

Would you mind telling me what AmyQ secretion efficiency value was observed for `MFKKHTISLLIIFLLAATFFSFTSLISAVLAKPIEAHTV` ?
4.38

Would you mind telling me what AmyQ secretion efficiency value was observed for `MKKRLIAPMLLSAASLAFFAMSGSAQARKK` ?
5.79

Would you mind telling me what AmyQ secretion efficiency value was observed for `MKKKLAAGLTASAIVGTTLVVFTAEAATI` ?
5.8

Would you mind telling me what AmyQ secretion efficiency value was observed for `MKKIWIGMLAAAVLLLMVPKVSLAAAD` ?
5.09

Would you mind telling me what AmyQ secretion efficiency value was observed for `MRIFKKAVFVIMISFLIATVNVNTAHAAEE` ?
1.56

Would you mind telling me what AmyQ secretion efficiency value was observed for `MKKTIMSFVAVAALSTTAFKRRHASAKEI` ?
7.04

Would you mind telling me what AmyQ secretion efficiency value was observed for `MKKKLKKGLTASAIVGTTLVVTPAEAATI` ?
5.93

Would you mind telling me what AmyQ secretion efficiency value was observed for `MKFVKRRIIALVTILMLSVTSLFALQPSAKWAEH` ?
5.19

Would you mind telling me what AmyQ secretion efficiency value was observed for `MKRKLLSSLAISALSLGLLVKRRKKKSFAAES` ?
7.18

Would you mind telling me what AmyQ secretion efficiency value was observed for `MKKKQVMLALTAAAGLHSAPAAKAAPL` ?
3.17

Would you mind telling me what AmyQ secretion efficiency value was observed for `MKWMCSICCAAVLLAGGAPQAEAV` ?
2.41

Would you mind telling me what AmyQ secretion efficiency value was observed for `MKKKLAAGLTASAIVGTTLVVTPAEPATI` ?
6.62

Would you mind telling me what AmyQ secretion efficiency value was observed for `MPIKKKVMMCSKVTLVFGSMSFPTLTNSGGFKE` ?
7.22

Would you mind telling me what AmyQ secretion efficiency value was observed for `MKKRFSLIMMTGLLFGLTSPAFAAPE` ?
3.06

Would you mind telling me what AmyQ secretion efficiency value was observed for `MRKKTKNRLISSVRKTVVISSLLFPGAAGASSK` ?
4.05

Would you mind telling me what AmyQ secretion efficiency value was observed for `MKLAKRVSALTPSTTLAITAKAAPK` ?
7.94

Would you mind telling me what AmyQ secretion efficiency value was observed for `MTTGLLASLVLCLSLSPLVSTNEVFAATT` ?
4.99

Would you mind telling me what AmyQ secretion efficiency value was observed for `MKRIRIPMTLALGAALTIAPLSFISAEEN` ?
3.01

Would you mind telling me what AmyQ secretion efficiency value was observed for `MFKKLLLATSALTFSLSLVLPLDGHAKAQED` ?
2.98

Would you mind telling me what AmyQ secretion efficiency value was observed for `MRSKKLWISLLFALTLITLLVAFTMAFSNMSAQAAGK` ?
7.19

Would you mind telling me what AmyQ secretion efficiency value was observed for `MPYLMMVLLLLVTGLFMSLFAVTATASAQTG` ?
1.47

Would you mind telling me what AmyQ secretion efficiency value was observed for `MSLYTVIASILLSFLSVLSGGHHESKAFPV` ?
5.37

Would you mind telling me what AmyQ secretion efficiency value was observed for `MKKRKITIAMLILAGIALFVFISPLKSHKT` ?
6.94

Would you mind telling me what AmyQ secretion efficiency value was observed for `MKLRKVLTGSVLSLGLLPPSSPAFATSP` ?
1.49

Would you mind telling me what AmyQ secretion efficiency value was observed for `MRFTKVVGFLSVLGLAAVFPLTVQAEKA` ?
3.18

Would you mind telling me what AmyQ secretion efficiency value was observed for `MKKAAAVLLSLGLVFGFSYGAGHVAENKTK` ?
4.78

Would you mind telling me what AmyQ secretion efficiency value was observed for `MKRFLIGAGVAAVILKRWFIARHQTHSQEM` ?
7.28
